# assay-method-text: in vitro
# measurement-conditions: human, hela cells, % viability
Listed here are molecules together with their documented viability at 28.5 h, 10 µM.
Give the quantity in %, number only.

Previously resolved entries follow.
INSERT INTO assay_data (molecule, endpoint_result) VALUES
  ('c1ccc2nc(N3CCCC3)c(OCc3ccsc3)nc2c1 [CBK115819]', 90.2),
  ('Cc1cccc(C)c1OCc1nnc(SCc2ccc([N+](=O)[O-])cc2)n1C [CBK269737]', 105),
  ('CC(C)(C)NC(=O)C[C@@H]1CCNC[C@@H]1Cc1cc(-c2ccccc2)on1 [CBK289145]', 86);

Query: Fill in: viability at 28.5 h, 10 µM of O=C(O)C1CCN(C2CC(=O)N(Cc3ccccc3)C2=O)CC1 (stereo not drawn) [CBK287206] is ___
Reply: 84.8

Query: Fill in: viability at 28.5 h, 10 µM of CC1=C(C)CC(C(=O)Nc2sc3c(c2C(=O)OC(C)C)CCCC3)C(C(=O)O)C1 (stereo not drawn) [CBK265428] is ___
Reply: 87

Query: Fill in: viability at 28.5 h, 10 µM of O=C(O)CC1(CC(=O)Nc2ccc(N3CCCC3=O)c(Cl)c2)CCCCC1 [CBK296664] is ___
Reply: 96.3

Query: Fill in: viability at 28.5 h, 10 µM of CCn1c2c(c3cc(S(=O)(=O)c4ccc(C(F)(F)F)cc4)ccc31)CCNCC2 [CBK018453C] is ___
Reply: 97.5

Query: Fill in: viability at 28.5 h, 10 µM of CCCC(=O)c1ccc(S(=O)(=O)N2CCCN(Cc3ccc(F)c(C(F)(F)F)c3)CC2)cc1 [CBK062918] is ___
Reply: 93

Query: Fill in: viability at 28.5 h, 10 µM of CCOC(=O)c1cccc(NS(=O)(=O)c2ccc(-c3ccccc3)cc2)c1 [CBK034341] is ___
Reply: 92.8
